# Test system: PPARg:RXRa 90nM:30nM, anti-RXR (NR concentration 90 nM, RXRa partner concentration 30 nM)
# Assay Details: PBM binding z-score (relative to random genomic background probes); higher = stronger binding; sequences stand for … in GC…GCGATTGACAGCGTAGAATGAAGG
Entries are sorted into classes by PBM binding z-score as follows: low range (below 1), mid range (1 to below 3), high range (3 or more)

Lab note: sort `TGAATTAGGTTAAAGATCAGGGAACGTGGCGTCG` into the matching PBM binding z-score band.
high range

Lab note: sort `TGTCAAAGTGCAAAGGTAACGTAAGTATCCACAC` into the matching PBM binding z-score band.
high range

Lab note: sort `TTACCAAGGTGAGCTGAGGTCGTTGTTCCAACTC` into the matching PBM binding z-score band.
low range

Lab note: sort `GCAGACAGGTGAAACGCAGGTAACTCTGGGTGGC` into the matching PBM binding z-score band.
low range

Lab note: sort `TCTCTTAGTTGAAGGGCAACCGACGAGTCCGTTT` into the matching PBM binding z-score band.
high range

Lab note: sort `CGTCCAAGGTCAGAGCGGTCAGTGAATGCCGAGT` into the matching PBM binding z-score band.
mid range

Lab note: sort `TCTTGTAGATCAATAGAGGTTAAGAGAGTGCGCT` into the matching PBM binding z-score band.
mid range

Lab note: sort `CGTCCAAGTTCAAAGGTCAGTGAAGAGATGACGG` into the matching PBM binding z-score band.
high range

Lab note: sort `TAGCCTAGGTCATGCGTGCCAGTATAGTGTCGGC` into the matching PBM binding z-score band.
mid range

Lab note: sort `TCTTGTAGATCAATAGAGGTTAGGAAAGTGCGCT` into the matching PBM binding z-score band.
mid range

Lab note: sort `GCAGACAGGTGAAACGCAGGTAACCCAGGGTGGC` into the matching PBM binding z-score band.
low range

Lab note: sort `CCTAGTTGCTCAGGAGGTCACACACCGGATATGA` into the matching PBM binding z-score band.
mid range
